OBSERVABLE: pIC50
FYI, pIC50 means -log10 of a concentration in mol per litre.

Query: Please report the measured pIC50 for COCCOc1ccc(-c2cn(-c3ccccc3)c3nc[nH]c(=O)c23)cc1 tested on MAP4K4 (Homo sapiens).
Sequence (O95819 whole entry, species assumed): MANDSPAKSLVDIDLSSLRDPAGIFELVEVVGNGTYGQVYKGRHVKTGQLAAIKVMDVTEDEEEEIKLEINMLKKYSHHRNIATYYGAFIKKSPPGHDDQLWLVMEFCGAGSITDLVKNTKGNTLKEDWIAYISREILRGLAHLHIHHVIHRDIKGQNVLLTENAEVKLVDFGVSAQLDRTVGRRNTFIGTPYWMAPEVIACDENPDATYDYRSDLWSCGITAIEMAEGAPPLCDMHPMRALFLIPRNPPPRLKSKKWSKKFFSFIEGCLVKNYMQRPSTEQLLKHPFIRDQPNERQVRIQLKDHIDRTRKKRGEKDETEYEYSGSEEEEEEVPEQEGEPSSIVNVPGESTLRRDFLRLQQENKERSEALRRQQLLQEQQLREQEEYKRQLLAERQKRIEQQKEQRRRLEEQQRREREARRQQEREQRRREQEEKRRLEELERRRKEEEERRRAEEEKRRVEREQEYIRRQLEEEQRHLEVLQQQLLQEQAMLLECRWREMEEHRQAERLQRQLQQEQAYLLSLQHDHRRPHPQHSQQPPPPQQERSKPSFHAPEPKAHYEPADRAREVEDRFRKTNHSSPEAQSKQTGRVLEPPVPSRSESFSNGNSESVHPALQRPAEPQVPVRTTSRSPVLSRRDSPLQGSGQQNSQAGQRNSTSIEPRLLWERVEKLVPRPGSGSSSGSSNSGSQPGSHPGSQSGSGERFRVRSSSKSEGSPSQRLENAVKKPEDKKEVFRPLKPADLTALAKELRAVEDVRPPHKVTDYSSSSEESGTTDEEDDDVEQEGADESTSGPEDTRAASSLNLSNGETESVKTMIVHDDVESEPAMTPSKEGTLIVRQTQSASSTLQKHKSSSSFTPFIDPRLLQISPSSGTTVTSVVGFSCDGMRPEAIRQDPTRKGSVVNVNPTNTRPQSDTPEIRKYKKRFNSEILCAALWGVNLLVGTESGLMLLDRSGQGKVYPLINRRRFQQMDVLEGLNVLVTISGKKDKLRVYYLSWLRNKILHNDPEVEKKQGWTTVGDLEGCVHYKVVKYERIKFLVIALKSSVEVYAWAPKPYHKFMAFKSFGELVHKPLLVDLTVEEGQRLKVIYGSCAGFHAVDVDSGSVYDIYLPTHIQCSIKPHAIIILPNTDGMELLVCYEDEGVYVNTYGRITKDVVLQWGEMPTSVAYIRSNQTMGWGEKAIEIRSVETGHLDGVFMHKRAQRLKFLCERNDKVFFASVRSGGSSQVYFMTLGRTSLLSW
Response: 8.52

----------
System: swine
Assay: pilot physiological study in healthy, chronically instrumented swine
Type: in vivo
Settings: animal 1, three-step infusion; 6h
OBSERVABLE: LV dP/dtmax (mmHg/s)
Express your answer in mmHg/s, writing the number without its unit.

Query: Please report the measured LV dP/dtmax for COCCOc1ccc(-c2cn(-c3ccccc3)c3ncn(COP(=O)(O)O)c(=O)c23)cc1 tested on swine.
Response: 5430

----------
System: swine
Test: pilot physiological study in healthy, chronically instrumented swine
Assay type: in vivo
Details: animal 2, two-step infusion; 24h 2 min
OBSERVABLE: LV dP/dtmax (mmHg/s)
Express your answer in mmHg/s, writing the number without its unit.

Query: Tell me measured LV dP/dtmax for COCCOc1ccc(-c2cn(-c3ccccc3)c3ncn(COP(=O)(O)O)c(=O)c23)cc1 please.
Response: 5090

----------
Tested on: swine
Assay: pilot physiological study in healthy, chronically instrumented swine
Type: in vivo
Details: animal 2, two-step infusion; 25h
OBSERVABLE: LV dP/dtmax (mmHg/s)
Express your answer in mmHg/s, writing the number without its unit.

Query: Tell me measured LV dP/dtmax for COCCOc1ccc(-c2cn(-c3ccccc3)c3ncn(COP(=O)(O)O)c(=O)c23)cc1 [DMX-10001] please.
Response: 5360

----------
Tested on: swine
Assay: pilot physiological study in healthy, chronically instrumented swine
Format: in vivo
Details: animal 1, three-step infusion; 3h
OBSERVABLE: LV dP/dtmax (mmHg/s)
Express your answer in mmHg/s, writing the number without its unit.

Query: Please report the measured LV dP/dtmax for COCCOc1ccc(-c2cn(-c3ccccc3)c3ncn(COP(=O)(O)O)c(=O)c23)cc1 [DMX-10001] tested on swine.
Response: 6030

----------
System: swine
Experiment: pilot physiological study in healthy, chronically instrumented swine
Type: in vivo
Conditions: animal 1, three-step infusion; 8h 30 min
OBSERVABLE: LV dP/dtmax (mmHg/s)
Express your answer in mmHg/s, writing the number without its unit.

Query: Tell me measured LV dP/dtmax for COCCOc1ccc(-c2cn(-c3ccccc3)c3ncn(COP(=O)(O)O)c(=O)c23)cc1 please.
Response: 5740

----------
System: swine
Assay: pilot physiological study in healthy, chronically instrumented swine
Type: in vivo
Conditions: animal 1, three-step infusion; 8h 2 min
OBSERVABLE: LV dP/dtmax
Please state the number and follow it with the unit.

Query: Tell me measured LV dP/dtmax for COCCOc1ccc(-c2cn(-c3ccccc3)c3ncn(COP(=O)(O)O)c(=O)c23)cc1 [DMX-10001] please.
Response: 4550 mmHg/s

----------
Tested on: swine
Assay: pilot physiological study in healthy, chronically instrumented swine
Assay type: in vivo
Settings: animal 2, two-step infusion; 10min
Description: Pilot physiological studies were performed in 2 female swine (45 and 85 kg), to confirm the lack of adverse effects from DMX-10001 in healthy myocardium. Animals were chronically instrumented as detailed below. Following a recovery week, animals received the pro-drug DMX-10001, while hemodynamics were recorded. […]
OBSERVABLE: LV dP/dtmax
Please state the number and follow it with the unit.

Query: Tell me measured LV dP/dtmax for COCCOc1ccc(-c2cn(-c3ccccc3)c3ncn(COP(=O)(O)O)c(=O)c23)cc1 please.
Response: 3400 mmHg/s

----------
System: swine
Assay: pilot physiological study in healthy, chronically instrumented swine
Type: in vivo
Conditions: animal 2, two-step infusion; 24h 30 min
OBSERVABLE: LV dP/dtmax (mmHg/s)
Express your answer in mmHg/s, writing the number without its unit.

Query: Tell me measured LV dP/dtmax for COCCOc1ccc(-c2cn(-c3ccccc3)c3ncn(COP(=O)(O)O)c(=O)c23)cc1 please.
Response: 4810

----------
Tested on: swine
Test: pilot physiological study in healthy, chronically instrumented swine
Assay type: in vivo
Details: animal 2, two-step infusion; 2h
OBSERVABLE: LV dP/dtmax (mmHg/s)
Express your answer in mmHg/s, writing the number without its unit.

Query: Tell me measured LV dP/dtmax for COCCOc1ccc(-c2cn(-c3ccccc3)c3ncn(COP(=O)(O)O)c(=O)c23)cc1 please.
Response: 4250

----------
System: swine
Test: pilot physiological study in healthy, chronically instrumented swine
Type: in vivo
Conditions: animal 1, three-step infusion; 1h
OBSERVABLE: LV dP/dtmax (mmHg/s)
Express your answer in mmHg/s, writing the number without its unit.

Query: Tell me measured LV dP/dtmax for COCCOc1ccc(-c2cn(-c3ccccc3)c3ncn(COP(=O)(O)O)c(=O)c23)cc1 please.
Response: 4040

----------
Tested on: swine
Experiment: pilot physiological study in healthy, chronically instrumented swine
Type: in vivo
Details: animal 2, two-step infusion; Baseline
OBSERVABLE: LV dP/dtmax (mmHg/s)
Express your answer in mmHg/s, writing the number without its unit.

Query: Tell me measured LV dP/dtmax for COCCOc1ccc(-c2cn(-c3ccccc3)c3ncn(COP(=O)(O)O)c(=O)c23)cc1 [DMX-10001] please.
Response: 3800

----------
System: swine
Test: pilot physiological study in healthy, chronically instrumented swine
Format: in vivo
Conditions: animal 2, two-step infusion; 24h
OBSERVABLE: LV dP/dtmax
Please state the number and follow it with the unit.

Query: Tell me measured LV dP/dtmax for COCCOc1ccc(-c2cn(-c3ccccc3)c3ncn(COP(=O)(O)O)c(=O)c23)cc1 please.
Response: 4260 mmHg/s

----------
System: swine
Experiment: pilot physiological study in healthy, chronically instrumented swine
Assay type: in vivo
Conditions: animal 2, two-step infusion; 40 min
OBSERVABLE: LV dP/dtmax
Please state the number and follow it with the unit.

Query: Tell me measured LV dP/dtmax for COCCOc1ccc(-c2cn(-c3ccccc3)c3ncn(COP(=O)(O)O)c(=O)c23)cc1 please.
Response: 3680 mmHg/s

----------
System: swine
Experiment: pilot physiological study in healthy, chronically instrumented swine
Assay type: in vivo
Details: animal 1, three-step infusion; Baseline
OBSERVABLE: LV dP/dtmax (mmHg/s)
Express your answer in mmHg/s, writing the number without its unit.

Query: Tell me measured LV dP/dtmax for COCCOc1ccc(-c2cn(-c3ccccc3)c3ncn(COP(=O)(O)O)c(=O)c23)cc1 please.
Response: 3470
